Hey, just so you know, these numbers are from patent US20260083865A1.

Molecular target: PSMA-expressing C4-2 cells (Homo sapiens)
Construct: PSMA-expressing C4-2 cells (ATCC, Cat. No. CRL-3314) were cultured in RPMI-1640; host or cells: C4-2 cells
Sequence (Q04609 whole entry): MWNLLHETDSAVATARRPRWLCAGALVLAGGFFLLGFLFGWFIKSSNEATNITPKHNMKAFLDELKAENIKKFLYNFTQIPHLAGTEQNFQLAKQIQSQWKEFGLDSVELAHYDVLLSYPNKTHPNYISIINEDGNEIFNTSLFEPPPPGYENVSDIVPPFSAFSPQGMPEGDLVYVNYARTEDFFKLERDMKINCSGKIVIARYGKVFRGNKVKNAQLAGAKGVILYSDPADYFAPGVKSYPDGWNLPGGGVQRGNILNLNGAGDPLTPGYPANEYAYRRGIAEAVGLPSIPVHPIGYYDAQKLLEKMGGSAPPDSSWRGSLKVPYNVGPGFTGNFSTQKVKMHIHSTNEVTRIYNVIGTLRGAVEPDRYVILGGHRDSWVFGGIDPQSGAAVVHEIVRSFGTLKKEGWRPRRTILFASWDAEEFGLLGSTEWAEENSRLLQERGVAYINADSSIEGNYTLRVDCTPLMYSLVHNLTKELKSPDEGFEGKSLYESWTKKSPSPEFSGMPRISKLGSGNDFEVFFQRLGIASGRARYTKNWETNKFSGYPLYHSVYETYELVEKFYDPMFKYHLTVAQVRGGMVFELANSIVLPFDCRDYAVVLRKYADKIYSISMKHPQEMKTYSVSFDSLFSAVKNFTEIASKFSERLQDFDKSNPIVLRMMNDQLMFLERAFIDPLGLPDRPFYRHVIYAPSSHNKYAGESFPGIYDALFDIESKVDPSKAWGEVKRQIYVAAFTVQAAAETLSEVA
Assay: FACS binding assay (competition with 50 nM PSM-0183)
Conditions: pIC50 category of FACS binding, C4-2 cells; read-out: pIC50 [C4-2] CAT (converted)
Numbered stars: 1 amine (or outer) side, 2 acyl side, 3 side chain; on linkers, the order of the positions; unused ones are H or OH. Bridge positions count the residues as written; N and C are the ends. Square brackets hold non-standard residues; d marks the D form. Peptide text beside a SMILES is read from it. * marks the point of attachment. X3 = O=C(O)CN1CCN(CC(=O)O)CCN(CC(=O)NCCCOCCOCCOCCCN*)CCN(CC(=O)O)CC1; DOTA = O=C(O)CN1CCN(CC(=O)O)CCN(CC(=O)*)CCN(CC(=O)O)CC1; Phe(4-Cl) = N[C@@H](Cc1ccc(Cl)cc1)C(=O)O; Phe(3-Me) = Cc1cccc(C[C@H](N)C(=O)O)c1; Arg(Me) = CNC(=N)NCCC[C@H](N)C(=O)O; 4Pal = N[C@@H](Cc1ccncc1)C(=O)O; X1 = O=C(CC1CCN([*:1])CC1)[*:2]; Lys(Me) = CNCCCC[C@H](N)C(=O)O; Suc = O=C(CCC(=O)[*:2])[*:1]; Tle = CC(C)(C)[C@H](N)C(=O)O; αMeS = C[C@](N)(CO)C(=O)O; AEEA = NCCOCCOCC(=O)O; Aib = CC(C)(N)C(=O)O; Bn = c1ccc(C*)cc1
Catalogue of IC50 readings, one per entry.

- compound: "CC(=O)NC(C)(C)C(=O)N[C@@H](Cc1ccc(Cl)cc1)C(=O)N[C@H]1CSSC[C@@H](C(N)=O)NC(=O)[C@H](CC(N)=O)NC(=O)C(C)(C)NC(=O)[C@H](CCCNC(=N)N)NC(=O)[C@H](CCCCN)NC1=O [PSM-0443, Ac-Aib-Pcf-[Cys-Lys-Arg-Aib-Asn-Cys]-NH2] (Ac-[Aib][Phe(4-Cl)]CKR[Aib]NC-NH2; disulfide 3-8)"
  assay-system: "PSMA-expressing C4-2 cells (Homo sapiens)"
  measurement: "200 to 1260 nM"

query: Sample CNCCCC[C@@H]1NC(=O)[C@@H](NC(=O)[C@H](Cc2cccc(C)c2)NC(=O)C(C)(C)NC(=O)[C@@H](NC(=O)CC2CCN(C(=O)CN3CCN(CC(=O)O)CCN(CC(=O)O)CCN(CC(=O)O)CC3)CC2)[C@@H](C)O)CSSC[C@@H](C(=O)N[C@H](C(N)=O)C(C)(C)C)NC(=O)[C@H](CC(N)=O)NC(=O)C(C)(C)NC(=O)[C@H](CCCNC(=N)NC)NC1=O [PSM-0503] ({DOTA}-[X1]T[Aib][Phe(3-Me)]C[Lys(Me)][Arg(Me)][Aib]NC[Tle]-NH2; disulfide 5-10) — what was its IC50?
result: < 200 nM

query: # IC50 lookup, item CC(=O)N[C@H](C(=O)NC(C)(C)C(=O)N[C@@H](CSCc1ccccc1)C(=O)N[C@H]1CSSC[C@@H](C(=O)N[C@H](C(=O)N[C@H](C(N)=O)[C@@H](C)O)C(C)(C)C)NC(=O)[C@H](CC(N)=O)NC(=O)C(C)(C)NC(=O)[C@H](CCCNC(=N)N)NC(=O)[C@H](CCCCN)NC1=O)[C@@H](C)O [PSM-0441] (Ac-T[Aib]C(Bn)CKR[Aib]NC[Tle]T-NH2; disulfide 4-9)
result: < 200 nM

query: May I ask what IC50 has been recorded for C[C@@H](O)[C@H](NC(=O)[C@@H](NC(=O)[C@@H]1CSSC[C@H](NC(=O)[C@H](Cc2ccccc2)NC(=O)C(C)(C)NC(=O)[C@@H](NC(=O)COCCOCCNC(=O)CN2CCN(CC(=O)O)CCN(CC(=O)O)CCN(CC(=O)O)CC2)[C@@H](C)O)C(=O)N[C@@H](CCCCN)C(=O)N[C@@H](CCCNC(=N)N)C(=O)NC(C)(C)C(=O)N[C@@H](CC(N)=O)C(=O)N1)C(C)(C)C)C(N)=O [PSM-0505] ({DOTA-AEEA}-T[Aib]FCKR[Aib]NC[Tle]T-NH2; disulfide 4-9) ?
result: < 200 nM

query: I have this compound here, C[C@@H](O)[C@H](NC(=O)[C@@H](NC(=O)[C@@H]1CSSC[C@H](NC(=O)[C@H](Cc2ccc(Cl)cc2)NC(=O)[C@](C)(CO)NC(=O)[C@@H](NC(=O)CC2CCN(C(=O)CN3CCN(CC(=O)O)CCN(CC(=O)O)CCN(CC(=O)O)CC3)CC2)[C@@H](C)O)C(=O)N[C@@H](CCCCN)C(=O)N[C@@H](CCCNC(=N)N)C(=O)NC(C)(C)C(=O)N[C@@H](CC(N)=O)C(=O)N1)C(C)(C)C)C(N)=O [PSM-0369] ({DOTA}-[X1]T[αMeS][Phe(4-Cl)]CKR[Aib]NC[Tle]T-NH2; disulfide 5-10) , and I need its recorded IC50.
result: < 200 nM

query: Quick check: IC50 of CC(=O)N[C@H](C(=O)NC(C)(C)C(=O)N[C@@H](Cc1ccccc1)C(=O)N[C@H]1CSSC[C@@H](C(=O)N[C@H](C(=O)N[C@H](C(N)=O)[C@@H](C)O)C(C)(C)C)NC(=O)CNC(=O)C(C)(C)NC(=O)[C@H](CCCNC(=N)N)NC(=O)[C@H](CCCCN)NC1=O)[C@@H](C)O [PSM-0479] (Ac-T[Aib]FCKR[Aib]GC[Tle]T-NH2; disulfide 4-9) ?
result: < 200 nM

query: Item under review: CC(=O)N[C@H](C(=O)NC(C)(C)C(=O)N[C@@H](Cc1ccccc1)C(=O)N[C@H]1CSSC[C@@H](C(=O)N[C@H](C(=O)NCC(N)=O)C(C)(C)C)NC(=O)[C@H](CC(N)=O)NC(=O)C(C)(C)NC(=O)[C@H](CCCNC(=N)N)NC(=O)[C@H](CCCCN)NC1=O)[C@@H](C)O [PSM-0477] (Ac-T[Aib]FCKR[Aib]NC[Tle]G-NH2; disulfide 4-9) . Reported IC50?
result: < 200 nM

query: Any idea what IC50 was measured for C[C@@H](O)[C@H](NC(=O)[C@@H](NC(=O)[C@@H]1CSSC[C@H](NC(=O)[C@H](Cc2ccncc2)NC(=O)C(C)(C)NC(=O)[C@@H](NC(=O)CC2CCN(C(=O)CN3CCN(CC(=O)O)CCN(CC(=O)O)CCN(CC(=O)O)CC3)CC2)[C@@H](C)O)C(=O)N[C@@H](CCCCN)C(=O)N[C@@H](CCCNC(=N)N)C(=O)NC(C)(C)C(=O)N[C@@H](CC(N)=O)C(=O)N1)C(C)(C)C)C(N)=O [PSM-0454] ({DOTA}-[X1]T[Aib][4Pal]CKR[Aib]NC[Tle]T-NH2; disulfide 5-10) ?
result: 1260 to 3160 nM

query: Request the reported IC50 associated with C[C@@H](O)[C@H](NC(=O)[C@@H](NC(=O)[C@@H]1CSSC[C@H](NC(=O)[C@H](Cc2ccccc2)NC(=O)C(C)(C)NC(=O)[C@@H](NC(=O)CCC(=O)NCCCOCCOCCOCCCNC(=O)CN2CCN(CC(=O)O)CCN(CC(=O)O)CCN(CC(=O)O)CC2)[C@@H](C)O)C(=O)N[C@@H](CCCCN)C(=O)N[C@@H](CCC(N)=O)C(=O)NC(C)(C)C(=O)N[C@@H](CC(N)=O)C(=O)N1)C(C)(C)C)C(N)=O [PSM-0521] ({X3-Suc}-T[Aib]FCKQ[Aib]NC[Tle]T-NH2; disulfide 4-9)
result: 200 to 1260 nM
